Tested on: U251 CNS
Exercise: state measured GI50 for each of the compounds provided.

Sample answers from the record:
Challenge: What does the record list as GI50 for CC[C@H](C)[C@H](NC(=O)[C@H]1CCCCN1C)C(=O)N(C)[C@H](CCc1nc(C(=O)N[C@@H](Cc2ccccc2)C[C@H](C)C(=O)OC)cs1)C(C)C ?
Response given: 345 nM

Challenge: What does the record list as GI50 for COc1ccc(OC(=O)O[C@H]2[C@H](O[C@H]3[C@@H](O)COC(O[C@H]4C[C@H]5[C@@H]6CC=C7C[C@@H](O)CC[C@]7(C)[C@H]6CC[C@]5(C)[C@H]4[C@H](C)C(=O)CCC(C)C)[C@@H]3OC(C)=O)OC[C@@H](O)[C@@H]2O)cc1 (some centres not stated) ?
Response given: 12.1 nM

Challenge: What does the record list as GI50 for COc1ccc(-c2cc3c(nn2)-c2ccccc2C3=O)cc1 ?
Response given: > 100000 nM

// for each compound in input: emit GI50
1. Cn1cc(-c2csc(-c3cccc(F)c3)n2)c2cccnc21
2. CC(C)(C)OC(=O)N(CCCN(CCn1c2c(c3ccccc3c1=O)C(=O)c1ccccc1-2)C(=O)OC(C)(C)C)CCn1c2c(c3ccccc3c1=O)C(=O)c1ccccc1-2
3. COc1cc2c3c(n(CCCBr)c(=O)c2cc1OC)-c1ccc(NC(C)=O)cc1C3=O
4. COc1ccc(C2CC(=O)c3c(O)c(OC)c(OC)c(OC)c3O2)c(O)c1 (configuration not stated)

Response given:
15500 nM
15200 nM
1170 nM
98.5 nM
